These entries and their values trace back to PubChem BioAssay AID1159580.

Protocol notes: chemical genetic growth profiling, strain panel (AID 1159580);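 further: tested at 20 µM; growth read once vehicle control cultures reached saturation at 30 °C; 1 = growth at the plate median or of vehicle wells; lower values mean less growth of the strain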
Measurement context: S. cerevisiae deletion strains, growth OD, locus YNL153C, strain GIM3, stronger effect = lower value
Screen size: about 5,500 compounds; about 2,000 (36%) were called active. About 18% were inconclusive and are not listed. Some of the results follow.
Quantity name: normalized growth
Format: numeric value only, no unit, no commentary.

O=c1cccc2n1C[C@H]1CNCC2C1 :: 1.03
S=c1[nH]c2ccccc2s1 :: 0.973
c1cc2c(cc1[C@H]1OC[C@H]3[C@@H]1CO[C@H]3c1ccc3c(c1)OCO3)OCO2 :: 0.822

Please give the measured normalized growth for this compound: NCCCC(N)(C(=O)O)C(F)F (configuration not stated) 1.02

Please give the measured normalized growth for this compound: CC1=CC(=O)CC(C)(C)C1(O)/C=C/C(C)=C\C(=O)O (configuration not stated) 0.987

----------
Protocol notes: chemical genetic growth profiling, strain panel (AID 1159580);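 further: tested at 20 µM; growth read once vehicle control cultures reached saturation at 30 °C; 1 = growth at the plate median or of vehicle wells; lower values mean less growth of the strain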
Measurement context: S. cerevisiae deletion strains, growth OD, locus YBR171W, strain sec66, stronger effect = lower value
The whole screen tested about 5,500 compounds, of which about 2,000 (36%) were called active. Inconclusive results (about 18%) are left out. The list shows a part of the results.
Below, each entry is listed alongside its reported normalized growth.
Format: numeric value only, no unit, no commentary.

C=CCc1cc(OC)c2c(c1OC)OCO2 :: 0.874

Please give the measured normalized growth for this compound: NC(=O)c1cnccn1 0.968

Please give the measured normalized growth for this compound: COc1ccc2c(c1O)-c1c(OC)c(OC)cc3c1[C@H](C2)N(C)CC3 0.976

Please give the measured normalized growth for this compound: C#C[C@]1(O)CCC2C3CCc4cc(OC)ccc4C3CC[C@@]21C (stereo not given in full) 0.959

Please give the measured normalized growth for this compound: CC[C@@H]1[C@@H](O)N2C3C[C@H]1C1C(O)[C@]4(C[C@@H]12)c1ccccc1N(C)[C@@H]34 (stereo not given in full) 1.07

Please give the measured normalized growth for this compound: C#C[C@]1(O)CCC2C3CCc4cc(O)ccc4C3CC[C@@]21C (stereo not given in full) 1.02

Please give the measured normalized growth for this compound: C[C@](N)(Cc1ccc(O)c(O)c1)C(=O)O 0.951

Please give the measured normalized growth for this compound: CCCNC(C)C(=O)Nc1ccccc1C (stereo not given) 1.01

Please give the measured normalized growth for this compound: CC(=O)OCC(=O)[C@@]12OC(C)(C)O[C@@H]1CC1C3C[C@H](F)C4=CC(=O)C=C[C@]4(C)[C@@]3(F)[C@@H](O)C[C@@]12C (stereo not given in full) 1.03

Please give the measured normalized growth for this compound: C[C@]12CCC3c4ccc(OS(=O)(=O)O)cc4CCC3C1CCC2=O (stereo not given in full) 1

Please give the measured normalized growth for this compound: C[C@@H]1CC2C3CCC4=CC(=O)C=C[C@]4(C)[C@@]3(F)[C@@H](O)C[C@]2(C)[C@@]1(O)C(=O)COP(=O)(O)O (stereo not given in full) 0.944

Please give the measured normalized growth for this compound: COc1ccc(C[C@H](N)C(=O)N[C@@H]2[C@@H](CO)OC(n3cnc4c(N(C)C)ncnc43)[C@@H]2O)cc1 (stereo not given in full) 0.976

Please give the measured normalized growth for this compound: CN1CCc2cccc3c2C1Cc1ccc(O)c(O)c1-3 (stereo not given) 0.949

Please give the measured normalized growth for this compound: CCCc1cc(OC)c2c(c1)OCO2 0.973

Please give the measured normalized growth for this compound: O=C(O)P(=O)(O)O 0.994

Please give the measured normalized growth for this compound: Nc1ccc(S(=O)(=O)Nc2nccs2)cc1 1.03

Please give the measured normalized growth for this compound: C[C@](N)(Cc1ccc(O)cc1)C(=O)O 0.998

Please give the measured normalized growth for this compound: CCOC(N)=O 0.99

Please give the measured normalized growth for this compound: COc1ccc(CN(CCN(C)C)c2ncccn2)cc1 1.01

Please give the measured normalized growth for this compound: CC[C@]12CCCN3CCc4c(n(c5ccccc45)C(=O)C1)[C@@H]32 0.999

Please give the measured normalized growth for this compound: COS(C)(=O)=O 0.978

Please give the measured normalized growth for this compound: CCOC(=O)C(C)(N)Cc1ccc(O)c(O)c1 (stereo not given) 0.967

Please give the measured normalized growth for this compound: NCc1ccc(S(N)(=O)=O)cc1 1

Please give the measured normalized growth for this compound: Nc1nccs1 0.975

Please give the measured normalized growth for this compound: O=C(O)CNCP(=O)(O)O 1.04
